Hi there, I'd appreciate the recorded solubility kinetic for every entry that follows.
assay: Aqueous solubility of the compound in phosphate buffer by turbidimetric method; type: physicochemical
Write it as a number; the unit µM goes unstated.

Query :: What value of solubility kinetic has been recorded for this entry: "CC(=O)[C@H]1CC[C@H]2[C@@H]3CC[C@H]4C[C@@H](NS(C)(=O)=O)CC[C@]4(C)[C@H]3CC[C@]12C"
Result :: 3

Query :: Entry under review: "CCNC(=O)N[C@H]1CC[C@@]2(C)[C@@H](CC[C@@H]3[C@@H]2CC[C@]2(C)C(=O)CC[C@@H]32)C1" . Reported solubility kinetic?
Result :: 30

###

biological target: Glucose-6-phosphate 1-dehydrogenase (Homo sapiens); assay: Inhibition of G6PD in HEK293T cells assessed as accumulation of 6-phosphogluconate after 5 hrs by LC-MS/MS analysis using 6-aminonicotinamide; format: cell-based, HEK-293T
Experimental readout: pIC50
Reminder that pIC50 means the negative base-10 logarithm of the concentration expressed in mol/L.

Query :: Could you tell me which pIC50 is on file for "CC(=O)[C@H]1CC[C@H]2[C@@H]3CC[C@H]4C[C@@H](NS(C)(=O)=O)CC[C@]4(C)[C@H]3CC[C@]12C" ?
Result :: 5.32

Query :: Given the compound "C[C@]12CC[C@H](O)CC1=CC[C@@H]1[C@@H]2CC[C@]2(C)C(=O)CC[C@@H]12" , what is its reported pIC50?
Result :: 4.60

Query :: Quick check: pIC50 of "C[C@]12CC[C@H](O)C[C@@H]1CC[C@@H]1[C@@H]2CC[C@]2(C)[C@@H](C(=O)CO)CC[C@@H]12" ?
Result :: 4.91

Query :: Tell me the measured pIC50 of "C[C@]12CC[C@H](NS(N)(=O)=O)C[C@@H]1CC[C@@H]1[C@@H]2CC[C@]2(C)C(=O)CC[C@@H]12" , please.
Result :: 4.76

Query :: Please report the recorded pIC50 for "C[C@]12CC[C@H](NS(C)(=O)=O)C[C@@H]1CC[C@@H]1[C@@H]2CC[C@]2(C)[C@@H](C(=O)CO)CC[C@@H]12" .
Result :: 4.45

Query :: Requested field: pIC50. Item: "C[C@]12CC[C@H](NS(N)(=O)=O)C[C@@H]1CC[C@@H]1[C@@H]2CC[C@]2(C)[C@@H](C(=O)CO)CC[C@@H]12"
Result :: 4.85

Query :: Fill in: pIC50 of "CCNC(=O)N[C@H]1CC[C@@]2(C)[C@@H](CC[C@@H]3[C@@H]2CC[C@]2(C)C(=O)CC[C@@H]32)C1" is ___
Result :: 5.02

Query :: Look up pIC50 for this compound: "CC(=O)[C@H]1CC[C@H]2[C@@H]3CC[C@H]4C[C@@H](NS(N)(=O)=O)CC[C@]4(C)[C@H]3CC[C@]12C"
Result :: 5.04

Query :: Quick check: pIC50 of "COC(=O)N[C@H]1CC[C@@]2(C)[C@@H](CC[C@@H]3[C@@H]2CC[C@]2(C)C(=O)CC[C@@H]32)C1" ?
Result :: 5.11

###

For each of the compounds below, state its IC50.
biological target: Glucose-6-phosphate 1-dehydrogenase (Homo sapiens, UniProt P11413); assay: Inhibition of human recombinant N-terminal His tagged G6PD expressed in Escherichia coli JM109 (DE3) cells assessed as production of NADPH after 30 mins by Amplite fluorimetric assay
Sequence (P11413 whole entry): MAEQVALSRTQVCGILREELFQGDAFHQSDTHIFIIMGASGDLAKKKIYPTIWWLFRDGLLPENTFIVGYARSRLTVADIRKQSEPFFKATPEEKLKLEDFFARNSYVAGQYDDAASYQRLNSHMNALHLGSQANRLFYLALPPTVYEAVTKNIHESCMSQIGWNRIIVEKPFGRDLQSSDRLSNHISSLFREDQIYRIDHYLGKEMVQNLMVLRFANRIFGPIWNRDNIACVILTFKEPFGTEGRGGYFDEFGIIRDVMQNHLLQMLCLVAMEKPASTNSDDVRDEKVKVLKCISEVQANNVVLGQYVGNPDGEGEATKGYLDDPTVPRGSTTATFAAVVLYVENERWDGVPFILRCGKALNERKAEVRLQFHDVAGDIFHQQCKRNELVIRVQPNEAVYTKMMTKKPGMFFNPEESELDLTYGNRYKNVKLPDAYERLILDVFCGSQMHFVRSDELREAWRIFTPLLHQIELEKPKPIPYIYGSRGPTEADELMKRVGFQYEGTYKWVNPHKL
Number only, in µM; omit the unit.

Query :: Reported IC50, compound "CC(=O)[C@H]1CC[C@H]2[C@@H]3CC[C@H]4C[C@H](O)CC[C@]4(C)[C@H]3CC[C@]12C" : ____
Result :: 66

Query :: Can you share its IC50? I mean this compound: "CC(=O)[C@H]1CC[C@H]2[C@@H]3CC=C4C[C@@H](O)CC[C@]4(C)[C@H]3CC[C@]12C"
Result :: 81.4

Query :: Consider the compound shown here: "C[C@]12CC[C@H](NS(C)(=O)=O)C[C@@H]1CC[C@@H]1[C@@H]2CC[C@]2(C)[C@@H](C(=O)CO)CC[C@@H]12" What is its recorded IC50?
Result :: 3.8

Query :: Reported IC50 for "COC(=O)N[C@H]1CC[C@@]2(C)[C@@H](CC[C@@H]3[C@@H]2CC[C@]2(C)C(=O)CC[C@@H]32)C1" : what is it?
Result :: 1.5

Query :: So what's the measured IC50 for this one? "CC(=O)[C@H]1CC[C@H]2[C@@H]3CC[C@H]4C[C@@H](NS(=O)(=O)N(C)C)CC[C@]4(C)[C@H]3CC[C@]12C"
Result :: 37.8

Query :: // IC50 lookup, key: "CNC(=O)N[C@H]1CC[C@@]2(C)[C@@H](CC[C@@H]3[C@@H]2CC[C@]2(C)C(=O)CC[C@@H]32)C1"
Result :: 12.2

Query :: Any idea what its IC50 is? The compound is "C[C@]12CC[C@H](O)C[C@@H]1CC[C@@H]1[C@@H]2CC[C@]2(C)[C@@H](C(=O)CO)CC[C@@H]12"
Result :: 0.9

Query :: # lookup: IC50 of "COC(=O)N[C@H]1CC[C@@]2(C)[C@@H](CC[C@@H]3[C@@H]2CC[C@]2(C)[C@@H](C(=O)CO)CC[C@@H]32)C1"
Result :: 41.6

###

biological target: Glucose-6-phosphate 1-dehydrogenase (Homo sapiens, UniProt P11413); experiment: Ratio of IC50 for G6PD in HEK293T cells to IC50 for human recombinant G6PD expressed in Escherichia coli JM109 (DE3) cells; conditions: HEK-293T
Values of Ratio IC50 strictly less than 5 map to Satisfied, and values of at least 5 map to Not satisfied.

Query :: Does C[C@]12CC[C@H](O)CC1=CC[C@@H]1[C@@H]2CC[C@]2(C)C(=O)CC[C@@H]12 [PRASTERONE] have Ratio IC50 strictly under 5?
Result :: Satisfied

Query :: Could you please tell me whether Ratio IC50 recorded for "CC(=O)[C@H]1CC[C@H]2[C@@H]3CC[C@H]4C[C@@H](NS(C)(=O)=O)CC[C@]4(C)[C@H]3CC[C@]12C" is less than 5?
Result :: Satisfied

Query :: In the record for "C[C@]12CC[C@H](O)C[C@@H]1CC[C@@H]1[C@@H]2CC[C@]2(C)[C@@H](C(=O)CO)CC[C@@H]12" , is Ratio IC50 less than 5?
Result :: Not satisfied

Query :: Lab note: Ratio IC50 threshold 5. Does this compound come in strictly under it? "C[C@]12CC[C@H](NS(C)(=O)=O)C[C@@H]1CC[C@@H]1[C@@H]2CC[C@]2(C)[C@@H](C(=O)CO)CC[C@@H]12"
Result :: Not satisfied

Query :: Hello, I'm reviewing records and need to know if Ratio IC50 of "CC(=O)[C@H]1CC[C@H]2[C@@H]3CC[C@H]4C[C@@H](NS(N)(=O)=O)CC[C@]4(C)[C@H]3CC[C@]12C" is below 5. Could you check?
Result :: Satisfied

Query :: Given "C[C@]12CC[C@H](NS(N)(=O)=O)C[C@@H]1CC[C@@H]1[C@@H]2CC[C@]2(C)C(=O)CC[C@@H]12" , is recorded Ratio IC50 strictly lower than 5?
Result :: Not satisfied

Query :: Identify whether the compound "CCNC(=O)N[C@H]1CC[C@@]2(C)[C@@H](CC[C@@H]3[C@@H]2CC[C@]2(C)C(=O)CC[C@@H]32)C1" records Ratio IC50 below 5.
Result :: Not satisfied

Query :: Bench note: check whether "COC(=O)N[C@H]1CC[C@@]2(C)[C@@H](CC[C@@H]3[C@@H]2CC[C@]2(C)C(=O)CC[C@@H]32)C1" shows Ratio IC50 below 5
Result :: Not satisfied

Query :: Quick check: does "C[C@]12CC[C@H](NS(N)(=O)=O)C[C@@H]1CC[C@@H]1[C@@H]2CC[C@]2(C)[C@@H](C(=O)CO)CC[C@@H]12" have Ratio IC50 under 5?
Result :: Not satisfied

###

test: Efflux ratio of permeability of the compound from basolateral to apical side over apical to basolateral side of human Caco2 cells; format: ADME, cell-based; settings: Caco-2
Experimental readout: efflux ratio
Form field (numeric): enter value without unit.

Query :: What efflux ratio value was documented for this molecule, "CCNC(=O)N[C@H]1CC[C@@]2(C)[C@@H](CC[C@@H]3[C@@H]2CC[C@]2(C)C(=O)CC[C@@H]32)C1" ?
Result :: 0.54

Query :: GET /values?readout=efflux ratio&item= "C[C@]12CC[C@H](NS(N)(=O)=O)C[C@@H]1CC[C@@H]1[C@@H]2CC[C@]2(C)[C@@H](C(=O)CO)CC[C@@H]12"
Result :: 0.49

Query :: Sample "C[C@]12CC[C@H](NS(N)(=O)=O)C[C@@H]1CC[C@@H]1[C@@H]2CC[C@]2(C)C(=O)CC[C@@H]12" — what was its efflux ratio?
Result :: 0.66

Query :: Recorded efflux ratio for "C[C@]12CC[C@H](NS(C)(=O)=O)C[C@@H]1CC[C@@H]1[C@@H]2CC[C@]2(C)[C@@H](C(=O)CO)CC[C@@H]12" , please?
Result :: 0.3

Query :: Would you mind telling me what efflux ratio value was observed for "CC(=O)[C@H]1CC[C@H]2[C@@H]3CC[C@H]4C[C@@H](NS(N)(=O)=O)CC[C@]4(C)[C@H]3CC[C@]12C" ?
Result :: 0.53
